# Experimental Conditions: bacteroides fragilis, 12 h, 2 µM
# Description: The drug is tested on Bacteroides fragilis strain: 3397 (T10) for biotransformation. The drug concentrations were measured before and after a 12-h incubation by liquid-chromatography-coupled mass spectrometry (LC–MS)
Readout: Bacterial Biotransformation

In [3]: df
Out[3]:
                                   molecule            value_observed
0  CC[C@H](C)C(=O)O[C@H]1C[C@@H](C)C=C2C=C[C@H](C)[C@H](CC[C@@H]3C[C@@H](O)CC(=O)O3)[C@H]21      Compound metabolized
1  CN1C(=O)CCS(=O)(=O)C1c1ccc(Cl)cc1 (centres undefined)  Compound NOT metabolized
2  COc1ccc2c(c1)c(CC(=O)O)c(C)n2C(=O)c1ccc(Cl)cc1      Compound metabolized
3  COc1ccccc1OCCNCC(O)COc1cccc2[nH]c3ccccc3c12 (centres undefined)  Compound NOT metabolized

====

# Experimental Details: The drug is tested on Dorea formicigenerans strain: ATCC27755 for biotransformation. The drug concentrations were measured before and after a 12-h incubation by liquid-chromatography-coupled mass spectrometry (LC–MS)
# Experimental Conditions: 2 µM
Readout: Bacterial Biotransformation

These solved cases illustrate the format of a correct answer.
                                   compound                      readout            value_observed
0  O=C(NC(Cc1cc(=O)[nH]c2ccccc12)C(=O)O)c1ccc(Cl)cc1 (configuration not stated) [REBAMIPIDE]  Bacterial Biotransformation  Compound NOT metabolized
1  C#C[C@]1(OC(C)=O)CC[C@H]2[C@@H]3CCC4=CC(=O)CC[C@@H]4[C@H]3CC[C@@]21C [NORETHINDRONE ACETATE]  Bacterial Biotransformation  Compound NOT metabolized
2     CN1CCc2cccc3c2[C@H]1Cc1ccc(O)c(O)c1-3  Bacterial Biotransformation  Compound NOT metabolized
3                   Nc1c2c(nc3ccccc13)CCCC2  Bacterial Biotransformation  Compound NOT metabolized

Go through the items and report each one's Bacterial Biotransformation.
1. Br.COc1ccc2c(c1)[C@]13CCCC[C@@H]1[C@H](C2)N(C)CC3.O [DEXTROMETHORPHAN HYDROBROMIDE]
2. O=c1n(CCCN2CCN(c3cccc(Cl)c3)CC2)nc2ccccn12

Reply:
1: Compound NOT metabolized; 2: Compound NOT metabolized

For each of the compounds below, state Bacterial Biotransformation.
1. CCN(CC)CCNC(=O)c1cc(S(C)(=O)=O)ccc1OC [TIAPRIDE]
2. CCCCC1=NC2(CCCC2)C(=O)N1Cc1ccc(-c2ccccc2-c2nnn[nH]2)cc1
3. CCCCc1nc(Cl)c(CO)n1Cc1ccc(-c2ccccc2-c2nn[nH]n2)cc1
4. C[C@]12C=CC(=O)C=C1CC[C@@H]1[C@@H]2C(=O)C[C@@]2(C)[C@H]1CC[C@]2(O)C(=O)CO
5. CN1[C@@H]2CC[C@H]1C[C@@H](OC(=O)C(CO)c1ccccc1)C2 (some centres not stated)
6. CS(=O)(=O)O.O.O.O.O=C1Cc2cc(CCN3CCN(c4nsc5ccccc45)CC3)c(Cl)cc2N1 [ZIPRASIDONE MESYLATE]
7. CN1CCN(C(=O)O[C@H]2c3nccnc3C(=O)N2c2ccc(Cl)cn2)CC1
8. COc1ccc([C@@H]2Sc3ccccc3N(CCN(C)C)C(=O)[C@@H]2OC(C)=O)cc1

Reply:
Compound NOT metabolized
Compound metabolized
Compound NOT metabolized
Compound NOT metabolized
Compound NOT metabolized
Compound NOT metabolized
Compound NOT metabolized
Compound metabolized

Could you report Bacterial Biotransformation for every entry in the following list?
1. CC(Oc1c(Cl)cccc1Cl)C1=NCCN1 (configuration not stated)
2. O=C(O)CCC(=O)O.O=C(O[C@H]1CN2CCC1CC2)N1CCc2ccccc2[C@@H]1c1ccccc1 [SOLIFENACIN SUCCINATE]
3. CCCN(CCC)CCc1cccc2c1CC(=O)N2

Reply:
1. Compound metabolized
2. Compound NOT metabolized
3. Compound NOT metabolized

====

# Experimental Details: The drug is tested on Bifidobacterium longum subsp. Infantis strain: CCUG52486 for biotransformation. The drug concentrations were measured before and after a 12-h incubation by liquid-chromatography-coupled mass spectrometry (LC–MS)
# Experimental Conditions: 2 µM
Readout: Bacterial Biotransformation

# annotated cases, reported Bacterial Biotransformation shown
Compound	Bacterial Biotransformation
CCN(C)C(=O)Oc1cccc([C@H](C)N(C)C)c1.O=C(O)C(O)C(O)C(=O)O [RIVASTIGMINE TARTRATE]	Compound NOT metabolized
COc1cc(C(=O)NCc2ccc(OCCN(C)C)cc2)cc(OC)c1OC [TRIMETHOBENZAMIDE]	Compound NOT metabolized
COc1ccc2c(c1)c(CC(=O)O)c(C)n2C(=O)c1ccc(Cl)cc1	Compound metabolized
CC(C)(C(=O)O)c1ccc(C(O)CCCN2CCC(C(O)(c3ccccc3)c3ccccc3)CC2)cc1 (stereo unspecified) [FEXOFENADINE]	Compound NOT metabolized
Nc1nc2ccc(OC(F)(F)F)cc2s1	Compound NOT metabolized

State the recorded Bacterial Biotransformation for every item in the following list.
1. CC(C)NCC(O)COc1ccc(COCCOC(C)C)cc1.CC(C)NCC(O)COc1ccc(COCCOC(C)C)cc1.O=C(O)/C=C/C(=O)O (stereo unspecified) [BISOPROLOL FUMARATE]
2. CC(=O)Nc1ccc(OC(C)=O)cc1 [DIACETAMATE]

Reply:
1. Compound NOT metabolized
2. Compound metabolized

====

# Experimental Conditions: bacteroides fragilis, 12 h, 2 µM
Readout: Bacterial Biotransformation

In the examples that follow, each entry is paired with its recorded Bacterial Biotransformation.
Compound	Value Observed
C[C@@H](CO)NC(=O)[C@@H]1C=C2c3cccc4[nH]cc(c34)C[C@H]2N(C)C1.O=C(O)/C=C\C(=O)O [ERGONOVINE MALEATE]	Compound metabolized
CCCC1O[C@@H]2C[C@H]3[C@@H]4CCC5=CC(=O)C=C[C@]5(C)[C@H]4[C@@H](O)C[C@]3(C)[C@]2(C(=O)CO)O1 (stereo not given in full) [BUDESONIDE]	Compound metabolized
CC(=O)Nc1ccc(OC(C)=O)cc1 [DIACETAMATE]	Compound metabolized
CCCCCCOC(=O)/N=C(/N)c1ccc(NCc2nc3cc(C(=O)N(CCC(=O)OCC)c4ccccn4)ccc3n2C)cc1.CS(=O)(=O)O [DABIGATRAN ETEXILATE MESYLATE]	Compound NOT metabolized
COc1c(C)c2c(c(O)c1C/C=C(\C)CCC(=O)OCCN1CCOCC1)C(=O)OC2 [MYCOPHENOLATE MOFETIL]	Compound metabolized
CCN(CC)CCCC(C)Nc1c2ccc(Cl)cc2nc2ccc(OC)cc12 (stereo not given)	Compound NOT metabolized

Please give Bacterial Biotransformation for each item listed below.
1. C[C@]12CCC(=O)C=C1[C@@H]1C[C@@H]1[C@H]1[C@@H]3[C@@H]4C[C@@H]4[C@@]4(CCC(=O)O4)[C@@]3(C)CC[C@@H]12
2. CC(C)N(CCC(C(N)=O)(c1ccccc1)c1ccccn1)C(C)C.O=P(O)(O)O (stereo not given) [DISOPYRAMIDE PHOSPHATE]
3. CC#C[C@]1(O)CC[C@H]2[C@@H]3CCC4=CC(=O)CCC4=C3[C@@H](c3ccc(N(C)C)cc3)C[C@@]21C
4. COC1=CC(=O)C[C@@H](C)[C@]12Oc1c(Cl)c(OC)cc(OC)c1C2=O
5. CC1Cc2ccccc2N1NC(=O)c1ccc(Cl)c(S(N)(=O)=O)c1 (stereo not given) [INDAPAMIDE]
6. CCN(CC)C(C)CN1c2ccccc2Sc2ccccc21 (stereo not given)
7. CC(C)OC(=O)C(C)(C)Oc1ccc(C(=O)c2ccc(Cl)cc2)cc1 [FENOFIBRATE]

Reply:
Compound NOT metabolized
Compound NOT metabolized
Compound NOT metabolized
Compound metabolized
Compound NOT metabolized
Compound NOT metabolized
Compound NOT metabolized

Below are some compounds; for each one, tell me its Bacterial Biotransformation.
1. CC(C)c1nc(CN(C)C(=O)N[C@H](C(=O)N[C@@H](Cc2ccccc2)C[C@H](O)[C@H](Cc2ccccc2)NC(=O)OCc2cncs2)C(C)C)cs1
2. CN1CCC(=C2c3ccccc3CCc3cccnc32)CC1.O=C(O)/C=C\C(=O)O.O=C(O)/C=C\C(=O)O [AZATADINE MALEATE]

Reply:
1: Compound NOT metabolized; 2: Compound NOT metabolized

====

# Experimental Details: The drug is tested on Ruminococcus gnavus strain: ATCC29149 for biotransformation. The drug concentrations were measured before and after a 12-h incubation by liquid-chromatography-coupled mass spectrometry (LC–MS)
# Experimental Conditions: mediterraneibacter gnavus, 2 µM
Readout: Bacterial Biotransformation

Compound	Bacterial Biotransformation
CCC(C)n1ncn(-c2ccc(N3CCN(c4ccc(OCC5COC(Cn6cncn6)(c6ccc(Cl)cc6Cl)O5)cc4)CC3)cc2)c1=O (centres undefined)	Compound NOT metabolized
OC(c1cc(C(F)(F)F)nc2c(C(F)(F)F)cccc12)C1CCCCN1 (centres undefined)	Compound NOT metabolized
CCN(CC)CCOC(=O)C1(C2CCCCC2)CCCCC1	Compound NOT metabolized
O=P(O)(O)O.c1ccc(CN(CC2=NCCN2)c2ccccc2)cc1 [ANTAZOLINE PHOSPHATE]	Compound NOT metabolized
CC(C)NCC(O)c1ccc(NS(C)(=O)=O)cc1 (centres undefined)	Compound NOT metabolized
CCOc1cc(CC(=O)N[C@@H](CC(C)C)c2ccccc2N2CCCCC2)ccc1C(=O)O [REPAGLINIDE]	Compound NOT metabolized

Would you mind giving Bacterial Biotransformation for every compound in the list below?
1. Br.CN(C)CCCC1(c2ccc(F)cc2)OCc2cc(C#N)ccc21 (centres undefined) [CITALOPRAM HYDROBROMIDE]
2. COc1ccccc1N1CCN(CC(O)COc2cccc3ccccc23)CC1 (centres undefined)
3. CC[C@@]1(O)C(=O)OCc2c1cc1n(c2=O)Cc2cc3c(CN(C)C)c(O)ccc3nc2-1
4. Nc1nc(N)nc(-c2cc(Cl)ccc2Cl)n1.O=C(O)/C=C\C(=O)O [IRSOGLADINE MALEATE]
5. CCN(CC)CC#CCOC(=O)C(O)(c1ccccc1)C1CCCCC1.Cl (centres undefined) [OXYBUTYNIN CHLORIDE]

Reply:
1: Compound NOT metabolized; 2: Compound NOT metabolized; 3: Compound NOT metabolized; 4: Compound NOT metabolized; 5: Compound NOT metabolized

Give me Bacterial Biotransformation for each of these compounds, listed below.
1. CC(CN(C)C)CN1c2ccccc2CCc2ccccc21.O=C(O)/C=C\C(=O)O (centres undefined) [TRIMIPRAMINE MALEATE]
2. O=C1C(CC[S+]([O-])c2ccccc2)C(=O)N(c2ccccc2)N1c1ccccc1 (centres undefined)
3. NS(=O)(=O)c1cc2c(cc1Cl)N=C(CSCc1ccccc1)NS2(=O)=O [BENZTHIAZIDE]

Reply:
1. Compound NOT metabolized
2. Compound NOT metabolized
3. Compound NOT metabolized

Dear colleague, could you please provide Bacterial Biotransformation for the compounds listed below?
1. C[C@@H]1CC[C@H]2[C@@H](C)C(=O)O[C@@H]3O[C@@]4(C)CC[C@@H]1[C@]32OO4
2. N#Cc1ccc2[nH]cc(CCCCN3CCN(c4ccc5oc(C(N)=O)cc5c4)CC3)c2c1
3. Cc1nc(-c2ccc(OCC(C)C)c(C#N)c2)sc1C(=O)O
4. CCOC(=O)[C@H](CCc1ccccc1)N[C@@H](C)C(=O)N1Cc2ccccc2C[C@H]1C(=O)O

Reply:
Compound metabolized
Compound NOT metabolized
Compound NOT metabolized
Compound NOT metabolized

Please state, for each entry, its recorded Bacterial Biotransformation.
1. COc1ccc(C(CN(C)C)C2(O)CCCCC2)cc1 (centres undefined)
2. COc1ccccc1OCCNCC(O)COc1cccc2[nH]c3ccccc3c12 (centres undefined)
3. CC(=O)OCC(CCn1cnc2cnc(N)nc21)COC(C)=O
4. CCC(COC(=O)c1cc(OC)c(OC)c(OC)c1)(c1ccccc1)N(C)C.O=C(O)/C=C\C(=O)O (centres undefined)
5. N=C(N)NC(=O)Cc1c(Cl)cccc1Cl

Reply:
1: Compound NOT metabolized; 2: Compound NOT metabolized; 3: Compound NOT metabolized; 4: Compound metabolized; 5: Compound NOT metabolized

I have 2 compounds here; please give me Bacterial Biotransformation for each one.
1. C=CCN1CC[C@]23c4c5ccc(O)c4O[C@H]2C(=O)CC[C@@]3(O)[C@H]1C5
2. Clc1cccc(Cl)c1N=C1NCCN1

Reply:
1: Compound NOT metabolized; 2: Compound NOT metabolized

Below is a list of compounds. For each, state its recorded Bacterial Biotransformation.
1. CCC(=O)NCC[C@@H]1CCc2ccc3c(c21)CCO3
2. Cc1ccccc1C(OCCN(C)C)c1ccccc1.O=C(O)CC(O)(CC(=O)O)C(=O)O (centres undefined) [ORPHENADRINE CITRATE]
3. COCCCC/C(=N\OCCN)c1ccc(C(F)(F)F)cc1.O=C(O)/C=C\C(=O)O [FLUVOXAMINE MALEATE]
4. C[C@]12C=CC(=O)C=C1CC[C@@H]1[C@@H]2C(=O)C[C@@]2(C)[C@H]1CC[C@]2(O)C(=O)CO
5. Nc1nc(NC2CC2)c2ncn([C@H]3C=C[C@@H](CO)C3)c2n1.Nc1nc(NC2CC2)c2ncn([C@H]3C=C[C@@H](CO)C3)c2n1.O=S(=O)(O)O [ABACAVIR SULFATE]

Reply:
Compound NOT metabolized
Compound NOT metabolized
Compound NOT metabolized
Compound NOT metabolized
Compound NOT metabolized

Dear colleague, could you send me Bacterial Biotransformation for each of the items below? Thanks.
1. O=C(O)CCc1nc(-c2ccccc2)c(-c2ccccc2)o1
2. O=C(O[C@H]1C[C@H]2CC[C@@H](C1)[N+]21CCCC1)C(O)(c1ccccc1)c1ccccc1.[Cl-] [TROSPIUM CHLORIDE]
3. CCCN1C[C@H](CSC)C[C@@H]2c3cccc4[nH]cc(c34)C[C@H]21.CS(=O)(=O)O [PERGOLIDE MESYLATE]
4. COc1ccc(Cc2nccc3cc(OC)c(OC)cc23)cc1OC

Reply:
Compound NOT metabolized
Compound NOT metabolized
Compound NOT metabolized
Compound NOT metabolized
